Tested on: K24384-001-R-PDC complex spheroid growth
Assay: Anticancer human tumor K24384-001-R-PDC patient-derived pancreatic adenocarcinoma cell line growth inhibition [AhR]
Settings: second compound 10 µM; first compound 1 µM; stronger effect = lower value
Answer each item with its documented viability, T/C.
One number for each entry, in %.

>>> result_value("Nc1ccccc1NC(=O)c1ccc(CNC(=O)OCc2cccnc2)cc1 + CC(CO)NC(=O)c1cc(-c2ccc(Cl)cc2)nn(-c2cnn(C)c2)c1=O")
40.5
>>> result_value("CC(C)c1c(-c2ccccc2)nc2c(C#N)c[nH]n2c1=O + CC(CO)NC(=O)c1cc(-c2ccc(Cl)cc2)nn(-c2cnn(C)c2)c1=O")
60.6
>>> result_value("Nc1ccccc1NC(=O)c1ccc(CNC(=O)OCc2cccnc2)cc1 + Cc1ccccc1N=Nc1ccc(NC(=O)c2ccnn2C)c(C)c1")
54.5

Consider the additional molecule presented here.
Prompt line: Please list viability, T/C recorded for the molecule O=C(C=Cc1cccc(S(=O)(=O)Nc2ccccc2)c1)NO + CC(CO)NC(=O)c1cc(-c2ccc(Cl)cc2)nn(-c2cnn(C)c2)c1=O
Response line: 73

###

Tested on: K24384-001-R-PDC complex spheroid growth
Experiment: Anticancer human tumor K24384-001-R-PDC cell line growth inhibition [AhR];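 also: percent of DMSO vehicle-treated spheroid viability set as 100%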
Conditions: second compound 1 µM; first compound 0.3 µM; stronger effect = lower value
Under this convention, true denotes viability, T/C strictly below 30% and false denotes viability, T/C at or above 30%.

See these solved cases before continuing.
>>> assigned_category("O=C(C=Cn1cnc(-c2cc(C(F)(F)F)cc(C(F)(F)F)c2)n1)NNc1cnccn1 + Cc1ccccc1N=Nc1ccc(NC(=O)c2ccnn2C)c(C)c1")
"false"
>>> assigned_category("CCN(c1cc(-c2ccc(CN3CCOCC3)cc2)cc(C(=O)NCc2c(C)cc(C)[nH]c2=O)c1C)C1CCOCC1 + Cc1ccccc1N=Nc1ccc(NC(=O)c2ccnn2C)c(C)c1")
"false"
>>> assigned_category("CCN(c1cc(-c2ccc(CN3CCOCC3)cc2)cc(C(=O)NCc2c(C)cc(C)[nH]c2=O)c1C)C1CCOCC1 + Cc1cncc(-c2nc(NCCc3c[nH]c4ccccc34)c3ncn(C(C)C)c3n2)c1")
"false"

Prompt line: Please indicate whether the reported viability, T/C of CC(C)CC(NC(=O)C(Cc1ccccc1)NC(=O)c1cnccn1)B(O)O (stereo not given) + CC(CO)NC(=O)c1cc(-c2ccc(Cl)cc2)nn(-c2cnn(C)c2)c1=O is strictly below 30%.
Response line: true

Prompt line: Dear colleague, could you confirm whether viability, T/C of Nc1ncn(C2CC(O)C(CO)S2)c(=O)n1 (stereo not given) + CC(CO)NC(=O)c1cc(-c2ccc(Cl)cc2)nn(-c2cnn(C)c2)c1=O falls below 30%? Thanks.
Response line: false

Prompt line: Item CC(C)CC(NC(=O)C(Cc1ccccc1)NC(=O)c1cnccn1)B(O)O (stereo not given) + Cc1cncc(-c2nc(NCCc3c[nH]c4ccccc34)c3ncn(C(C)C)c3n2)c1 : viability, T/C beneath 30%, strictly?
Response line: true

Prompt line: Decide: viability, T/C of CC(C)CC(NC(=O)C(Cc1ccccc1)NC(=O)c1cnccn1)B(O)O (stereo not given) + Cc1ccccc1N=Nc1ccc(NC(=O)c2ccnn2C)c(C)c1 strictly below 30%?
Response line: true

Prompt line: Does the reported viability, T/C of the following compound sit strictly below 30%? CCc1c2c(nc3ccc(O)cc13)-c1cc3c(c(=O)n1C2)COC(=O)[C@]3(O)CC + Cc1cncc(-c2nc(NCCc3c[nH]c4ccccc34)c3ncn(C(C)C)c3n2)c1
Response line: true

Prompt line: Does the reported viability, T/C of CCN(c1cc(-c2ccc(CN3CCOCC3)cc2)cc(C(=O)NCc2c(C)cc(C)[nH]c2=O)c1C)C1CCOCC1 + CC(CO)NC(=O)c1cc(-c2ccc(Cl)cc2)nn(-c2cnn(C)c2)c1=O stay below 30%?
Response line: false

Prompt line: Given CCc1c2c(nc3ccc(O)cc13)-c1cc3c(c(=O)n1C2)COC(=O)[C@]3(O)CC + CC(CO)NC(=O)c1cc(-c2ccc(Cl)cc2)nn(-c2cnn(C)c2)c1=O , is recorded viability, T/C strictly lower than 30%?
Response line: true

Prompt line: Consider the compound Nc1ncn(C2CC(O)C(CO)S2)c(=O)n1 (stereo not given) + Cc1ccccc1N=Nc1ccc(NC(=O)c2ccnn2C)c(C)c1 . Is its viability, T/C strictly less than 30%?
Response line: false

Prompt line: Confirm or reject: viability, T/C of O=C(C=Cn1cnc(-c2cc(C(F)(F)F)cc(C(F)(F)F)c2)n1)NNc1cnccn1 + Cc1cncc(-c2nc(NCCc3c[nH]c4ccccc34)c3ncn(C(C)C)c3n2)c1 lies strictly below 30%
Response line: false

Prompt line: Input O=C(C=Cn1cnc(-c2cc(C(F)(F)F)cc(C(F)(F)F)c2)n1)NNc1cnccn1 + CC(CO)NC(=O)c1cc(-c2ccc(Cl)cc2)nn(-c2cnn(C)c2)c1=O ; condition: viability, T/C strictly below 30%. Does it hold?
Response line: false

Prompt line: Does this compound meet the criterion viability, T/C < 30%? Nc1ncn(C2CC(O)C(CO)S2)c(=O)n1 (stereo not given) + Cc1cncc(-c2nc(NCCc3c[nH]c4ccccc34)c3ncn(C(C)C)c3n2)c1
Response line: false

###

System: K24384-001-R-PDC complex spheroid growth
Experiment: Anticancer human tumor K24384-001-R-PDC cell line growth inhibition [AhR];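 also: percent of DMSO vehicle-treated spheroid viability set as 100%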
Settings: second compound 3.16 µM; first compound 1 µM; stronger effect = lower value
Label condition met when viability, T/C is strictly below 60%; at or above that, label condition not met.

Please review the entries below; each comes with its answer.
>>> assigned_category("CC1(C)CCC(CN2CCN(c3ccc(C(=O)NS(=O)(=O)c4ccc(NCC5CCOCC5)c([N+](=O)[O-])c4)c(Oc4cnc5[nH]ccc5c4)c3)CC2)=C(c2ccc(Cl)cc2)C1 + CC(CO)NC(=O)c1cc(-c2ccc(Cl)cc2)nn(-c2cnn(C)c2)c1=O")
"condition not met"
>>> assigned_category("Nc1ccn(C2OC(CO)C(O)C2(F)F)c(=O)n1 (configuration not stated) + Cc1ccccc1N=Nc1ccc(NC(=O)c2ccnn2C)c(C)c1")
"condition met"
>>> assigned_category("COc1cc(C2c3cc4c(cc3C(OC3OC5COC(C)OC5C(O)C3O)C3COC(=O)C23)OCO4)cc(OC)c1O (configuration not stated) + Cc1ccccc1N=Nc1ccc(NC(=O)c2ccnn2C)c(C)c1")
"condition met"
>>> assigned_category("Nc1ncn(C2CC(O)C(CO)O2)c(=O)n1 (configuration not stated) + Cc1cncc(-c2nc(NCCc3c[nH]c4ccccc34)c3ncn(C(C)C)c3n2)c1")
"condition not met"
>>> assigned_category("O=C(c1cc(Cc2n[nH]c(=O)c3ccccc23)ccc1F)N1CCN(C(=O)C2CC2)CC1 + Cc1ccccc1N=Nc1ccc(NC(=O)c2ccnn2C)c(C)c1")
"condition not met"

Let us examine a further case.
Prompt line: Quick check: viability, T/C of CC1COCCN1c1cc(-c2ccnn2C)c2ccnc(-c3ccn[nH]3)c2n1 (configuration not stated) + Cc1cncc(-c2nc(NCCc3c[nH]c4ccccc34)c3ncn(C(C)C)c3n2)c1 under 60%?
Response line: condition met

###

System: K24384-001-R-PDC complex spheroid growth
Assay: Anticancer human tumor K24384-001-R-PDC cell line growth inhibition [AhR];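 also: percent of DMSO vehicle-treated spheroid viability set as 100%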
Conditions: second compound 0.1 µM; first compound 1 µM; stronger effect = lower value
Give viability, T/C for every item shown.
Numbers only, in %.

Hi! Can you tell me viability, T/C for each of these compounds?
1. COc1ccc([C@@H](O)c2cc(-c3ncnc4cc(N5CCOCC5)ccc34)c(F)cc2Cl)nn1 + Cc1cncc(-c2nc(NCCc3c[nH]c4ccccc34)c3ncn(C(C)C)c3n2)c1
2. CC1COCCN1c1cc(C2(S(C)(=N)=O)CC2)nc(-c2ccnc3[nH]ccc23)n1 (stereo not drawn) + Cc1cncc(-c2nc(NCCc3c[nH]c4ccccc34)c3ncn(C(C)C)c3n2)c1

Response line:
1: 68.5; 2: 84.1

Prompt line: Supply measured viability, T/C of CC1COCCN1c1cc(-c2ccnn2C)c2ccnc(-c3ccn[nH]3)c2n1 (stereo not drawn) + Cc1ccccc1N=Nc1ccc(NC(=O)c2ccnn2C)c(C)c1 in your reply.
Response line: 28.2

###

Tested on: K24384-001-R-PDC complex spheroid growth
Test: Anticancer human tumor K24384-001-R-PDC cell line growth inhibition [AhR];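 also: percent of DMSO vehicle-treated spheroid viability set as 100%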
Settings: second compound 10 µM; first compound 1 µM; stronger effect = lower value
Assign viability, T/C to each entry below.
Give bare numbers, in %.

>>> result_value("O=C(c1cc(Cc2n[nH]c(=O)c3ccccc23)ccc1F)N1CCN(C(=O)C2CC2)CC1 + CC(CO)NC(=O)c1cc(-c2ccc(Cl)cc2)nn(-c2cnn(C)c2)c1=O")
71.9
>>> result_value("COc1cc(C2c3cc4c(cc3C(OC3OC5COC(C)OC5C(O)C3O)C3COC(=O)C23)OCO4)cc(OC)c1O (configuration not stated) + CC(CO)NC(=O)c1cc(-c2ccc(Cl)cc2)nn(-c2cnn(C)c2)c1=O")
44.7
>>> result_value("O=C(C=Cc1cccc(S(=O)(=O)Nc2ccccc2)c1)NO + Cc1ccccc1N=Nc1ccc(NC(=O)c2ccnn2C)c(C)c1")
89
>>> result_value("O=C(C=Cc1cccc(S(=O)(=O)Nc2ccccc2)c1)NO + Cc1cncc(-c2nc(NCCc3c[nH]c4ccccc34)c3ncn(C(C)C)c3n2)c1")
9.39
>>> result_value("COc1cccc2c1C(=O)c1c(O)c3c(c(O)c1C2=O)CC(O)(C(=O)CO)CC3OC1CC(N)C(O)C(C)O1 (configuration not stated) + CC(CO)NC(=O)c1cc(-c2ccc(Cl)cc2)nn(-c2cnn(C)c2)c1=O")
2.07
>>> result_value("COc1cc(Nc2ncc3c(n2)-c2ccc(Cl)cc2C(c2c(F)cccc2OC)=NC3)ccc1C(=O)O + Cc1cncc(-c2nc(NCCc3c[nH]c4ccccc34)c3ncn(C(C)C)c3n2)c1")
9.55

List viability, T/C for every entry below, keeping the order given.
1. O=C(c1cc(Cc2n[nH]c(=O)c3ccccc23)ccc1F)N1CCN(C(=O)C2CC2)CC1 + Cc1cncc(-c2nc(NCCc3c[nH]c4ccccc34)c3ncn(C(C)C)c3n2)c1
2. COc1cc(Nc2ncc3c(n2)-c2ccc(Cl)cc2C(c2c(F)cccc2OC)=NC3)ccc1C(=O)O + Cc1ccccc1N=Nc1ccc(NC(=O)c2ccnn2C)c(C)c1
3. CC1COCCN1c1cc(-c2ccnn2C)c2ccnc(-c3ccn[nH]3)c2n1 (configuration not stated) + Cc1cncc(-c2nc(NCCc3c[nH]c4ccccc34)c3ncn(C(C)C)c3n2)c1
4. CC(C)c1c(-c2ccccc2)nc2c(C#N)c[nH]n2c1=O + Cc1ccccc1N=Nc1ccc(NC(=O)c2ccnn2C)c(C)c1
5. COc1cccc2c1C(=O)c1c(O)c3c(c(O)c1C2=O)CC(O)(C(=O)CO)CC3OC1CC(N)C(O)C(C)O1 (configuration not stated) + Cc1ccccc1N=Nc1ccc(NC(=O)c2ccnn2C)c(C)c1

Response line:
1: 13.9; 2: 74.2; 3: 6.27; 4: 119; 5: 8.14

Prompt line: Return value of viability, T/C for input Nc1ncn(C2CC(O)C(CO)O2)c(=O)n1 (configuration not stated) + Cc1ccccc1N=Nc1ccc(NC(=O)c2ccnn2C)c(C)c1 , no commentary.
Response line: 58.1
